Origin of the recorded values: patent US11866408B2

assay: Single oral dose pharmacokinetics study in rats (10 mg/kg PO; plasma levels of prodrug and of metabolite DMT or 5-MeO-DMT by LC-MS/MS); conditions: male, Sprague-Dawley, rat, plasma, po, 10 mg/kg, AUC0-t (ng.hr/mL), PO 10 mg/kg, analyte = dosed compound
value kind: AUC(0-t) (ng·h/mL)
Numeric only. Scale: ng·h/mL

Look over these answered cases.
# compound, units, AUC(0-t)
data = [
    ("COc1ccc2c(c1)c(CCN(C)C)cn2P(=O)(OC(C)C)OC(C)C [Diisopropylphosphonate 5-MeO-DMT Prodrug]", "ng·h/mL", 352),
    ("CN(C)CCc1c[nH]c2ccccc12", "ng·h/mL", 59.1),
    ("CC(C)OP(=O)(OC(C)C)n1cc(CCN(C)C)c2ccccc21 [Diisopropylphosphonate DMT Prodrug]", "ng·h/mL", 644),
]

Query block: Name the reported AUC(0-t) value associated with the compound CCOC(=O)n1cc(CCN(C)C)c2ccccc21
Result block: 4.78

Query block: Name the reported AUC(0-t) value associated with the compound CCOC(=O)n1cc(CCN(C)C)c2cc(OC)ccc21
Result block: 68.8

====

experiment: Single oral dose pharmacokinetics study in rats (10 mg/kg PO; plasma levels of prodrug and of metabolite DMT or 5-MeO-DMT by LC-MS/MS); settings: male, Sprague-Dawley, rat, plasma, po, 10 mg/kg, C0/Cmax (ng/mL), PO 10 mg/kg Plasma [Tlast = 4 h], analyte = dosed prodrug
value kind: Cmax (ng/mL)
Numeric only. Scale: ng/mL

Query block: Name the reported Cmax value associated with the compound CC(C)OP(=O)(OC(C)C)n1cc(CCN(C)C)c2ccccc21 [Diisopropylphosphonate DMT Prodrug]
Result block: 195

====

assay: Single intravenous dose pharmacokinetics study in rats (1 mg/kg IV; plasma levels of prodrug and of DMT or 5-MeO-DMT by LC-MS/MS); details: male, Sprague-Dawley, rat, plasma, iv, 1 mg/kg, CL/CL_F (mL/min/kg), IV 1 mg/kg, analyte = dosed compound
value kind: clearance (mL/min/kg)
Numeric only. Scale: mL/min/kg

# compound, clearance, mL/min/kg
measured = [
    ("CCOC(=O)n1cc(CCN(C)C)c2ccccc21", 67.9),
    ("CN(C)CCc1c[nH]c2ccccc12", 85.8),
    ("CC(C)OP(=O)(OC(C)C)n1cc(CCN(C)C)c2ccccc21 [Diisopropylphosphonate DMT Prodrug]", 70.2),
    ("COc1ccc2c(c1)c(CCN(C)C)cn2P(=O)(OC(C)C)OC(C)C [Diisopropylphosphonate 5-MeO-DMT Prodrug]", 150),
]

We next turn to a different compound, shown below.
Query block: Name the reported clearance value associated with the compound COc1ccc2[nH]cc(CCN(C)C)c2c1 [Compound 5-MeO-DMT, 5-methoxy-N,N-dimethyltryptamine, reference compound]
Result block: 24.6

====

experiment: Single intravenous dose pharmacokinetics study in rats (1 mg/kg IV; plasma levels of prodrug and of DMT or 5-MeO-DMT by LC-MS/MS); conditions: male, Sprague-Dawley, rat, plasma, iv, 1 mg/kg, MRT (h), IV 1 mg/kg Plasma (t= 0 to Ihr)
value kind: MRT (min)
Numeric only. Scale: min

Query block: Name the reported MRT value associated with the molecule CN(C)CCc1c[nH]c2ccccc12
Result block: 7.92
